Test: Photochromic PMMA cast film: initial coloration density, maximum absorption wavelength and fatigue life in xenon fadeometer (Example 9)
Assay type: physicochemical
Details: time for color density to fall to half of initial value; PMMA cast film 0.1 mm, xenon fadeometer, no stabilizer
Below is a list of entries, each paired with its recorded T1/2 value.
Form entry: value (h) — number only.

Here is how some compounds turned out for T1/2.
• CC(=O)OCN1C(=O)C2=C(C3CC3)c3sc(Br)cc3C3(C4CC5CC(C4)CC3C5)C2C1=O (stereo not drawn) = 68
• CCOC1CC1C1=C2C(=O)N(C(C#N)CC)C(=O)C2C2(c3sc(OC)c(C)c31)C1CC3CC(C1)CC2C3 (stereo not drawn) = 88
• COCCOCN1C(=O)C2=C(C3(F)C(F)(F)C3(F)F)c3c(oc4ccccc34)C3(C2C1=O)C1(F)CCC3(F)CC1 (stereo not drawn) = 91
• COC(=O)CN1C(=O)C2=C(C3CC3)c3ccsc3C3(C4CCC3CC4)C2C1=O (stereo not drawn) = 77

I am curious: what T1/2 value has been reported for O=C1OC(=O)C2C1=C(C1CC1C(F)(F)F)c1sc(Br)cc1C21C2CCC1CC2 (stereo not drawn) ?
48

I am curious: what T1/2 value has been reported for CCC(C#N)N1C(=O)C2=C(C3CC3[N+](=O)[O-])c3c(sc4c3CCCC4)C3(C4CCCC3(C)CCC4)C2C1=O (stereo not drawn) ?
76
